For each of the molecules below, state its IC50.
Test system: Caco-2 (human epithelial colorectal adenocarcinoma)
Experiment: MTS cytotoxicity / antiproliferative assay
Assay type: cell-based
Settings: Homo sapiens, Caco-2, 72 h, Table 6 maple compounds; 72 h; unit inferred; read-out: Caco-2 72 h(IC50)
Answers are plain numbers, in µM.

Reference set (5 entries):
COc1cc(C(=O)C(O)CO)ccc1O (stereo not drawn) : 90.8
COc1cc2ccc(=O)oc2cc1O : 82
COc1ccc(C2OC(=O)C(O)(Cc3ccc(OC4OC(C)C(O)C(O)C4O)c(OC)c3)C2CO)cc1OC (stereo not drawn) : 96.8
COc1cc(C2Oc3c(OC)cc(CCCO)cc3C2CO)cc(OC)c1O (stereo not drawn) : 70.9
O=Cc1ccc(O)c(O)c1 : 58.9

Let us move to another entry and its IC50.
Value of IC50 reported for the molecule `O=C(O)c1cc(O)c(O)c(O)c1` is 89.3

====

Tested on: HCT-116 (human colon carcinoma)
Assay: MTS cytotoxicity / antiproliferative assay
Assay type: cell-based
Conditions: Homo sapiens, HCT-116, 48 h, read-out: HCT-116 48 h (IC50), 48 h
PARAMETER_MEASURED: IC50 (µM)
Answers are plain numbers, in µM.

Value of IC50 reported for the molecule COc1cc([C@@H]2c3cc4c(cc3[C@@H](O[C@@H]3O[C@@H]5CO[C@@H](C)O[C@H]5[C@H](O)[C@H]3O)[C@H]3COC(=O)[C@H]23)OCO4)cc(OC)c1O [Etoposide, reference compound] is 26.9

====

Assay: DPPH radical scavenging (antioxidant) assay
Format: biochemical
Conditions: Table 10; mean ± standard deviation; 30 min, 515 nm; read-out: IC50 (μM), DPPH radical scavenging
Field: label. Allowed values: true (IC50 < 800 µM) or false (IC50 >= 800 µM).

Field: example entries. Status: answers known.
COc1cc(C(=O)C(O)CO)ccc1O (centres unmarked) : true
COc1cc(C(O)C(CO)Oc2ccc(C(O)C(O)CO)cc2OC)ccc1O (centres unmarked) [compound 27] : true
COc1cc(/C=C/c2ccc(O)c(OC)c2)ccc1O : true
COc1ccc(C2OC(=O)C(O)(Cc3ccc(OC4OC(C)C(O)C(O)C4O)c(OC)c3)C2CO)cc1OC (centres unmarked) : true
COc1cc(CC(CO)C(CO)Cc2ccc(O)c(OC)c2)ccc1O (centres unmarked) : false
COc1cc(C(O)C(CO)Oc2c(OC)cc(CCCO)cc2OC)ccc1O (centres unmarked) : false

Does this compound meet the criterion IC50 < 800 µM? `COc1cc([C@@H](O)[C@@H](CO)Oc2ccc(CCCO)cc2OC)ccc1O` true

Does this compound meet the criterion IC50 < 800 µM? `COc1cc2ccc(=O)oc2c(O)c1O` true

Does this compound meet the criterion IC50 < 800 µM? O=C(CO)c1ccc(O)c(O)c1 [compound 11, 2-hydroxy-3′,4′-dihydroxyacetophenone] true

Does this compound meet the criterion IC50 < 800 µM? Cc1cc(C(C)(C)C)c(O)c(C(C)(C)C)c1 [BHT, butylated hydroxytoluene, reference compound] false

====

System: HCT-116 (human colon carcinoma)
Assay: MTS cytotoxicity / antiproliferative assay
Format: cell-based
Conditions: Homo sapiens, HCT-116, 72 h, 72 h; pure isolated compounds; read-out: Antiproliferative activity HCT-116 72 h (IC50)
PARAMETER_MEASURED: pIC50
Numbers only, as −log10 of the molar value.

Reference set (3 entries):
Oc1ccc(O)c(O)c1 [compound 52, 4-hydroxycatechol] : 4.24
COc1cc([C@@H](O)[C@@H](CO)Oc2ccc(CCCO)cc2OC)ccc1O [compound 6] : 4.01
COc1cc(/C=C/CO)cc(OC)c1O [compound 20, syringenin] : 3.97

Below is a list of molecules. For each, state its recorded pIC50.
1. Oc1ccccc1O [compound 23, catechol]
2. COc1cc(/C=C/CO)ccc1O [compound 21, (E)-coniferol]
3. COc1cc(C=O)ccc1O [compound 15, vanillin]
4. COc1cc(C(=O)C(O)CO)ccc1O (stereo not shown) [compound 22, C-veratroylglycol]
5. COc1cc2ccc(=O)oc2c(O)c1O [compound 9, fraxetin]
6. COc1cc(CC(CO)C(CO)Cc2ccc(O)c(OC)c2)ccc1O (stereo not shown) [compound 2, secoisolariciresinol]
7. COc1cc(C(=O)O)cc(OC)c1O [compound 19, syringic acid]
8. COc1cc(CCCO)ccc1OC(CO)C(O)c1ccc(OC2OC(C)C(O)C(O)C2O)c(OC)c1 (stereo not shown) [compound 55]

1: 4.20; 2: 4.07; 3: 3.96; 4: 4.18; 5: 4.07; 6: 4.23; 7: 3.97; 8: 3.98

Below is a list of molecules. For each, state its recorded pIC50.
1. COc1cc2ccc(=O)oc2cc1O [compound 8, scopoletin]
2. O=C(O)c1cc(O)c(O)c(O)c1 [compound 17, gallic acid]
3. COc1cc(C(CO)C(c2ccc(O)c(OC)c2)c2ccc(O)c(OC)c2)ccc1O (stereo not shown) [compound 54, Quebecol]

[4.22, 4.38, 4.12]

Below is a list of molecules. For each, state its recorded pIC50.
1. OCCc1ccc(O)cc1 [compound 50, tyrosol]
2. O=Cc1ccc(O)c(O)c1 [compound 14, catechaldehyde]

1: 4.03; 2: 4.28
